TEST TARGET: human GLP-1 receptor (Homo sapiens, UniProt P43220)
Sequence (P43220 24-463): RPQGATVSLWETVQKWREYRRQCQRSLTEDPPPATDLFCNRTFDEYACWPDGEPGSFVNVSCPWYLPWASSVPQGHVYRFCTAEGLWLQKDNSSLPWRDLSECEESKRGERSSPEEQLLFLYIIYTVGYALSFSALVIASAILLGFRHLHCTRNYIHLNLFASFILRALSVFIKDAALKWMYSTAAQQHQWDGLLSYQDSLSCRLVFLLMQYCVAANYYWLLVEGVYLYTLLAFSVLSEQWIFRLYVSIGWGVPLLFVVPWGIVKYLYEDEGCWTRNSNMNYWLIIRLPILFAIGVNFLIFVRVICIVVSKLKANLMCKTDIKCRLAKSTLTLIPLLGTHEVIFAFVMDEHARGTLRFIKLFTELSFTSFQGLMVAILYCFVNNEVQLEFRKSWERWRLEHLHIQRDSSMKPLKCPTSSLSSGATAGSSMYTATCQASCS
ASSAY INFO: cAMP production assay in CHO cells expressing human GLP-1 receptor
Type: cell-based
MEASUREMENT SETUP: Table 18; maximum activation compared to GLP-1
Binary call on % Max Effect: yes from 70% upward, no beneath that.

Consider the following illustrative entries.
Lookup: For this molecule, is measured % Max Effect 70% or higher? HS9_DSB7_I23G: HS9_DSB7 with peptide point mutation I23G; SEQ ID NO: 459 (protein) HGEGTFTSDLSKQMEEECVRLFGEWLKNGGPSSGAPPPGCGGGGGSGGGGSGGGGSADIQMTQSPSSLSASVGDRVTITCQASQDVKTAVAWYQQKPGKAPKLLIYSASYRYTGVPSRFSGSGSGTDFTFTISSLQPEDIATYYCQQRYSLWRTFGQGTKLEIK
Found: yes

Lookup: For this molecule, is measured % Max Effect 70% or higher? HS9_DSB7_G2T: HS9_DSB7 with peptide point mutation G2T; SEQ ID NO: 446 (protein) HTEGTFTSDLSKQMEEECVRLFIEWLKNGGPSSGAPPPGCGGGGGSGGGGSGGGGSADIQMTQSPSSLSASVGDRVTITCQASQDVKTAVAWYQQKPGKAPKLLIYSASYRYTGVPSRFSGSGSGTDFTFTISSLQPEDIATYYCQQRYSLWRTFGQGTKLEIK
Found: yes

Lookup: For this molecule, is measured % Max Effect 70% or higher? HS9_DSB7_L26T: HS9_DSB7 with peptide point mutation L26T; SEQ ID NO: 461 (protein) HGEGTFTSDLSKQMEEECVRLFIEWTKNGGPSSGAPPPGCGGGGGSGGGGSGGGGSADIQMTQSPSSLSASVGDRVTITCQASQDVKTAVAWYQQKPGKAPKLLIYSASYRYTGVPSRFSGSGSGTDFTFTISSLQPEDIATYYCQQRYSLWRTFGQGTKLEIK
Found: yes

---
Lookup: For this molecule, is measured % Max Effect 70% or higher? HS9_DSB7_I23A: HS9_DSB7 with peptide point mutation I23A; SEQ ID NO: 460 (protein) HGEGTFTSDLSKQMEEECVRLFAEWLKNGGPSSGAPPPGCGGGGGSGGGGSGGGGSADIQMTQSPSSLSASVGDRVTITCQASQDVKTAVAWYQQKPGKAPKLLIYSASYRYTGVPSRFSGSGSGTDFTFTISSLQPEDIATYYCQQRYSLWRTFGQGTKLEIK
Found: no

Lookup: For this molecule, is measured % Max Effect 70% or higher? HS9_DSB7_L26N: HS9_DSB7 with peptide point mutation L26N; SEQ ID NO: 464 (protein) HGEGTFTSDLSKQMEEECVRLFIEWNKNGGPSSGAPPPGCGGGGGSGGGGSGGGGSADIQMTQSPSSLSASVGDRVTITCQASQDVKTAVAWYQQKPGKAPKLLIYSASYRYTGVPSRFSGSGSGTDFTFTISSLQPEDIATYYCQQRYSLWRTFGQGTKLEIK
Found: no

The measurements presented in this section are drawn from patent US10077319B2.
